Reference source: patent US20070026026A1

experiment: Example 1.2 solubility of losartan potassium in sodium phosphate buffers by HPLC; assay type: physicochemical; conditions: sodium phosphate buffer, aqueous buffer, thermodynamic from solid; SPB pH = 1.7; 48 hours; room temperature; HPLC
measuredAttribute: solubility at 48 h (µg/mL)
Lab book: enter the figure in µg/mL, no units written.

### Prompt Given the molecule CCCCc1nc(Cl)c(CO)n1Cc1ccc(-c2ccccc2-c2nnn[nH]2)cc1.[K] , what is its reported solubility at 48 h?
### Response 152

----------
test: Example 1.2 solubility of losartan potassium in sodium phosphate buffers by HPLC; type: physicochemical; settings: sodium phosphate buffer, aqueous buffer, thermodynamic from solid; SPB pH = 6.2; 480 hours; room temperature; HPLC
measuredAttribute: solubility at 480 h (µg/mL)
Lab book: enter the figure in µg/mL, no units written.

### Prompt Given the compound CCCCc1nc(Cl)c(CO)n1Cc1ccc(-c2ccccc2-c2nnn[nH]2)cc1.[K] [losartan potassium] , what is its reported solubility at 480 h?
### Response 60

----------
assay: Example 1.1 solubility of losartan potassium with and without buffering agent (visual); type: physicochemical; settings: organic solvent or mixture, thermodynamic from solid; Ethanol; visual
measuredAttribute: solubility (mg/mL)
Lab book: enter the figure in mg/mL, no units written.

### Prompt Given the compound CCCCc1nc(Cl)c(CO)n1Cc1ccc(-c2ccccc2-c2nnn[nH]2)cc1.[K] , what is its reported solubility?
### Response 130

----------
test: Example 1.1 solubility of losartan potassium with and without buffering agent (visual); format: physicochemical; conditions: water with NaOH, aqueous buffer, thermodynamic from solid; Water + NaOH, pH 11.8; visual
measuredAttribute: solubility

### Prompt Given the compound CCCCc1nc(Cl)c(CO)n1Cc1ccc(-c2ccccc2-c2nnn[nH]2)cc1.[K] [losartan potassium] , what is its reported solubility?
### Response > 239 mg/mL

----------
experiment: Example 1.1 solubility of losartan potassium with and without buffering agent (visual); format: physicochemical; conditions: thermodynamic from solid; Water, pH 5.5; visual
measuredAttribute: solubility

### Prompt Given the molecule CCCCc1nc(Cl)c(CO)n1Cc1ccc(-c2ccccc2-c2nnn[nH]2)cc1.[K] [losartan potassium] , what is its reported solubility?
### Response > 243 mg/mL

----------
test: Example 1.1 solubility of losartan potassium with and without buffering agent (visual); format: physicochemical; settings: water with HCl, aqueous buffer, thermodynamic from solid; Water + HCl, pH 2.1; visual
measuredAttribute: solubility (µg/mL)
Lab book: enter the figure in µg/mL, no units written.

### Prompt Given the molecule CCCCc1nc(Cl)c(CO)n1Cc1ccc(-c2ccccc2-c2nnn[nH]2)cc1.[K] [losartan potassium] , what is its reported solubility?
### Response 280

----------
test: Example 1.2 solubility of losartan potassium in sodium phosphate buffers by HPLC; assay type: physicochemical; details: sodium phosphate buffer, aqueous buffer, thermodynamic from solid; SPB pH = 8.2; 0 hours; room temperature; HPLC
measuredAttribute: solubility at 0 h

### Prompt Given the compound CCCCc1nc(Cl)c(CO)n1Cc1ccc(-c2ccccc2-c2nnn[nH]2)cc1.[K] , what is its reported solubility at 0 h?
### Response > 250 mg/mL

----------
assay: Example 1.2 solubility of losartan potassium in sodium phosphate buffers by HPLC; type: physicochemical; conditions: sodium phosphate buffer, aqueous buffer, thermodynamic from solid; SPB pH = 8.2; 48 hours; room temperature; HPLC
measuredAttribute: solubility at 48 h

### Prompt Given the compound CCCCc1nc(Cl)c(CO)n1Cc1ccc(-c2ccccc2-c2nnn[nH]2)cc1.[K] , what is its reported solubility at 48 h?
### Response > 250 mg/mL
